tested on: SNK-6 (IL-2 2.5 ng/mL); assay: percent inhibition of viability; higher = more inhibition; conditions: 72 h; 0.1 nM
experimental-endpoint: percent inhibition of viability (%)
Please reply with the bare figure in % and do not write the unit itself.

Recorded results for 3 compounds are shown here.
{"compound": "CCNC(=O)c1noc(-c2cc(C(C)C)c(O)cc2O)c1-c1ccc(CN2CCOCC2)cc1 [Luminespib] (max concentration tested 1000 nM)", "percent inhibition of viability (%)": -5.65}
{"compound": "O=C(NOC[C@H](O)CO)c1ccc(F)c(F)c1Nc1ccc(I)cc1F (max concentration tested 1000 nM)", "percent inhibition of viability (%)": 4.76}
{"compound": "COc1cc2c(Oc3ccc(NC(=O)C4(C(=O)Nc5ccc(F)cc5)CC4)cc3F)ccnc2cc1OCCCN1CCOCC1 [Foretinib] (max concentration tested 1000 nM)", "percent inhibition of viability (%)": -1.08}

Next, consider the following compound.
Noted for COc1cc2nccc(Oc3ccc(NC(=O)C4(C(=O)Nc5ccc(F)cc5)CC4)cc3)c2cc1OC [Cabozantinib] (max concentration tested 1000 nM) : its percent inhibition of viability reads 7.18

---

// reported percent inhibition of viability for each item listed
test system: normal NK cells expanded with K562-aAPC; assay: percent inhibition of viability; higher = more inhibition; settings: 72 h; IL-2 2.5 ng/mL; 1 nM
Please reply with the bare figure in % and do not write the unit itself.

Noted for c1ccc([C@H]2CN3CCSC3=N2)cc1 [Levamisole] (max concentration tested 10000 nM) : its percent inhibition of viability reads -4.29

Noted for Cc1ccc(NC(=O)c2ccc(CN3CCN(C)CC3)cc2)cc1Nc1nccc(-c2cccnc2)n1 [Imatinib] (max concentration tested 10000 nM) : its percent inhibition of viability reads -6.85

Noted for CO[C@@H]1[C@H](N(C)C(=O)c2ccccc2)C[C@H]2O[C@]1(C)n1c3ccccc3c3c4c(c5c6ccccc6n2c5c31)C(=O)NC4 [Midostaurin] (max concentration tested 10000 nM) : its percent inhibition of viability reads -0.81

Noted for C/C(=C\c1csc(C)n1)[C@@H]1C[C@@H]2O[C@]2(C)CCC[C@H](C)[C@H](O)[C@@H](C)C(=O)C(C)(C)[C@@H](O)CC(=O)N1 [Ixabepilone] (max concentration tested 1000 nM) : its percent inhibition of viability reads -8.46

Noted for COc1ccc(-c2cc3c(C)nc(N)nc3n([C@H]3CC[C@H](OCCO)CC3)c2=O)cn1 (max concentration tested 10000 nM) : its percent inhibition of viability reads -6.01

Noted for CC(C)CC(=O)Nc1n[nH]c2c1CN(C(=O)C1CCN(C)CC1)C2(C)C (max concentration tested 10000 nM) : its percent inhibition of viability reads 1.26

---

tested on: SNK-6 (IL-2 2.5 ng/mL); experiment: drug sensitivity score (DSS) (DSS units); higher = more sensitive; extreme values may be limits of the assay; settings: 72 h
// reported drug sensitivity score for each item listed
Lab note: record the figure alone, no unit after it.

{"compound": "CO[C@H]1/C=C\\C=C(/C)C(=O)NC2=CC(=O)C(NCCN(C)C)=C(C[C@@H](C)C[C@H](OC)[C@H](O)[C@@H](C)/C=C(\\C)[C@@H]1OC(N)=O)C2=O [Alvespimycin] (max concentration tested 1000 nM)", "drug sensitivity score": 19.9}

Noted for COc1cc2ncnc(Nc3ccc(F)c(Cl)c3)c2cc1NC(=O)/C=C/CN1CCCCC1 [Dacomitinib] (max concentration tested 1000 nM) : its drug sensitivity score reads 0.98

Noted for Cc1nc(C(=O)NCC(=O)O)c(O)c2ccc(Oc3ccccc3)cc12 [FG-4592] (max concentration tested 10000 nM) : its drug sensitivity score reads 1.59
